# Measurement Protocol: BSK_3C_Vis: BioMAP Diversity Plus: 3C Assay for Morphology Visualization (AID 2283025);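 note: fitted both ways so gain or loss versus DMSO counts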
# Study Conditions: primary human endothelial cells (HUVEC)
Active and inactive are the calls of the source. Rule for the calls: active = hit-call score of the fitted dose curve at least 0.9, where 1 is the maximum; inactive = score below 0.9.
Assay Endpoint: outcome

>>> measured("O=C(Oc1ccc(Br)cc1)N1CCN2CCC1CC2")
"inactive"
>>> measured("O=Cc1ccco1")
"inactive"
>>> measured("Nc1ccc([N+](=O)[O-])cc1")
"inactive"

---

# Measurement Protocol: ATG_NFI_CIS: Attagene CIS-FACTORIAL HepG2 Assay for human Nuclear Factor I (NFI) (AID 2282989)
# Study Conditions: HepG2 cis-regulatory reporter, NFI response element transcription; actives raise or lower the signal
Calls of active or inactive are those of the source. Rule for the calls: active = hit-call score of the fitted dose curve at least 0.9, where 1 is the maximum; inactive = score below 0.9.
Output constraint: value belongs to t for active, f for inactive

How was ClC1=C(Cl)C2(Cl)C3C(Cl)C=CC3C1(Cl)C2(Cl)Cl (centres undefined) classified in this test? t

How was CCCCCCCCOC(=O)c1ccc(C(=O)OCCCCCCCC)c(C(=O)OCCCCCCCC)c1 classified in this test? f

How was Clc1ccc(C(c2ccc(Cl)cc2)C(Cl)(Cl)Cl)cc1 classified in this test? t
